Kindly state percentage of cells within gate for each of the entries shown.
# Experimental system: T1, CD4 cell surface receptor molecule on peripheral blood mononuclear cells (PBMCs) (human, UniProt P01730 26-458)
# T1 construct: whole, on cells; also called CD4 receptor molecule
# Test: flow cytometry, PBMCs, live CD3+ T cells; column 'Fab multimer -> D-biotin': Fab-multimer staining analysed after treatment with D-biotin
Give bare numbers, in %.

The following binders have reported results that may help.
binder="Mutant 13B8.2 Fab fragment with Phe at position 100 of the heavy chain mutated to Ala, heavy chain fused to One-STrEP-tag (Fab, V domains shown, also called CD4 mutant 1 (F100A); F100K-H) VH: QVQLKQSGPGLVQPSQSLSITCTVSGFSLTTFGVHWVRQSPGKGLEWLGVIWRSGITDYNVPFMSRLSITKDNSKSQVFFKLNSLQPDDTAIYYCAKNDPGTGAAYWGQGTLVTVSA VL: DIQMTQSPASLSASVGETVTFTCRASEMIYSYLAWYQQKQGKSPQLLVHDAKTLAEGVPSRFSGGGSGTQFSLKINTLQPEDFGTYYCQHHYGNPPTFGGGTKLEIKR" quantity="percentage of cells within gate" measured_value=0.014
binder="Mutant 13B8.2 Fab fragment with Tyr at position 92 of the light chain mutated to Ala, heavy chain fused to One-STrEP-tag (Fab, V domains shown, also called CD4 mutant 2 (Y92A); mutant 2) VH: QVQLKQSGPGLVQPSQSLSITCTVSGFSLTTFGVHWVRQSPGKGLEWLGVIWRSGITDYNVPFMSRLSITKDNSKSQVFFKLNSLQPDDTAIYYCAKNDPGTGFAYWGQGTLVTVSA VL: DIQMTQSPASLSASVGETVTFTCRASEMIYSYLAWYQQKQGKSPQLLVHDAKTLAEGVPSRFSGGGSGTQFSLKINTLQPEDFGTYYCQHHAGNPPTFGGGTKLEIKR" quantity="percentage of cells within gate" measured_value=0.034

Consider the additional binder presented here.
Indicate its recorded percentage of cells within gate; the binder in question is Mutant 13B8.2 Fab fragment with His at position 35 of the heavy chain mutated to Ala, heavy chain fused to One-STrEP-tag (Fab, V domains shown, also called CD4 mutant 3 (H35A); mutant 3) VH: QVQLKQSGPGLVQPSQSLSITCTVSGFSLTTFGVAWVRQSPGKGLEWLGVIWRSGITDYNVPFMSRLSITKDNSKSQVFFKLNSLQPDDTAIYYCAKNDPGTGFAYWGQGTLVTVSA VL: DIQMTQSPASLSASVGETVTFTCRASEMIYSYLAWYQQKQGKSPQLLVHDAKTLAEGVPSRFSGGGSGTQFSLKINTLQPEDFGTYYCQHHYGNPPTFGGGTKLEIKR
0.041
